# System: Potassium-transporting ATPase (Canis familiaris)
# Assay: Percent inhibition of gastric proton-pump enzyme H+/K+ ATPase was determined at 50 uM
# Experimental Setup: Canis lupus familiaris, Stomach
Reported inhibition values for a set of compounds
Give your result in % as a bare value.

Example entries and their recorded answers appear below.
| Smiles Repr | System | inhibition [%] |
| --- | --- | --- |
| Cc1c(-c2csc(NC(=N)NCc3ccccc3)n2)ccn1S(=O)(=O)c1ccccc1 | Potassium-transporting ATPase (Canis familiaris) | 54 |
| Cc1cccc2[nH]cc(-c3csc(NC(=N)NCc4ccccc4)n3)c12 | Potassium-transporting ATPase (Canis familiaris) | 103 |
| COc1ccccc1-c1csc(N=C(N)N)n1 | Potassium-transporting ATPase (Canis familiaris) | 70 |
| N=C(NCc1ccccc1)Nc1nc(-c2ccc(Cl)cc2)cs1 | Potassium-transporting ATPase (Canis familiaris) | 38 |
| Cc1cccc(-c2csc(NC(=N)NCc3ccccc3)n2)c1 | Potassium-transporting ATPase (Canis familiaris) | 53 |
| Cc1cccc2c(-c3csc(NC(=N)NCc4ccccc4)n3)c[nH]c12 | Potassium-transporting ATPase (Canis familiaris) | 92 |

Query: Value lookup for inhibition; key = `CN(C)c1cccc(-c2csc(NC(=N)N)n2)c1`
Reply: 52

----------
# System: Potassium-transporting ATPase (Canis familiaris)
# Assay: Inhibitory activity against dog gastric proton-pump enzyme H+/K+ ATPase
Property Name: pIC50
Conceptually, pIC50 converts a concentration in mol/L into minus its log10.

Example cases with answers are listed next.
| Smiles Repr | Quantitative Readout |
| --- | --- |
| CC(=O)Nc1ccc2[nH]cc(-c3csc(NC(=N)NCc4ccccc4)n3)c2c1 | 4.62 |
| Cc1cccc(-c2csc(N=C(N)N)n2)c1 | 4.49 |
| Cc1sc(N=C(N)N)nc1-c1c[nH]c2ccc(Cl)cc12 | 6.23 |
| Cc1cc(-c2nc(NC(=N)Nc3ccccc3)sc2C)c[nH]1 | 5.01 |

Query: Can you look up the measured pIC50 of `N=C(NCc1ccccc1)Nc1nc(-c2cc3cc(Cl)ccc3[nH]2)cs1` for me?
Reply: 5.04

Query: Could you tell me which pIC50 is on file for `N=C(N)Nc1nc(-c2c[nH]c(C(=O)N3CCCCC3)c2)cs1` ?
Reply: 4.77

Query: Using the record for `COc1ccc2[nH]cc(-c3csc(NC(=N)NCc4ccccc4)n3)c2c1.Cl` , report its pIC50.
Reply: 5.37

Query: Fill blank: measured pIC50 of the compound `Cc1cccc2[nH]cc(-c3csc(N=C(N)NCc4ccccc4)n3)c12` is ____.
Reply: 5.48

Query: Tell me the measured pIC50 of `COc1cccc(-c2csc(NC(=N)NCc3ccccc3)n2)c1` , please.
Reply: 5.00

Query: What value of measured pIC50 is listed for `N=C(NCc1ccccc1)Nc1nc(-c2c[nH]c3ccc(F)cc23)cs1` ?
Reply: 5.57

Query: Any idea what pIC50 was measured for `Cc1[nH]ccc1-c1csc(NC(=N)NCc2ccccc2)n1.O=C(O)/C=C\C(=O)O` ?
Reply: 5.22

----------
# System: Potassium-transporting ATPase (Canis familiaris)
# Assay: Percent inhibition of gastric proton-pump enzyme H+/K+ ATPase was determined at 50 uM
# Experimental Setup: Canis lupus familiaris, Stomach
Property Name: inhibition (%)
Give just the numeric value; % need not be written.

Please review the following examples before continuing.
| Smiles Repr | inhibition (%) |
| --- | --- |
| N/C(=N\Cc1ccccc1)Nc1nc(-c2ccc(O)cc2)cs1 | 49 |
| Cn1cc(-c2csc(N=C(N)N)n2)cc1C=O | 44 |
| N=C(NCc1ccccc1)Nc1nc(-c2c[nH]c3ccc(OCc4ccccc4)cc23)cs1 | 90 |
| N/C(=N\Cc1ccccc1)Nc1nc(-c2ccccc2O)cs1 | 85 |
| COc1ccc2[nH]cc(-c3csc(NC(=N)NCc4ccccc4)n3)c2c1.Cl | 95 |
| Cc1[nH]c(-c2csc(N=C(N)N)n2)cc1C(=O)N(C)C | 33 |
| Cc1cc(-c2csc(N)n2)c[nH]1 | 17 |
| N=C(NCc1ccccc1)Nc1nc(-c2cc3ccccc3[nH]2)cs1 | 61 |

Query: inhibition for `N=C(NCc1ccccc1)Nc1nc(-c2ccccc2Cl)cs1` ?
Reply: 99

Query: Which inhibition reading was recorded for the molecule `N=C(N)Nc1nc(-c2cccc(N)c2)cs1` ?
Reply: 45
